B1: CPEB3 Ribozyme (parent)
chain: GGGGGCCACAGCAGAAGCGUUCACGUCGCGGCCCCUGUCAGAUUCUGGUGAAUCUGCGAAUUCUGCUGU

variants of: B1; experiment: self-cleavage, relative activity (ratio to wild type); higher = more cleavage; co-transcriptional
Assign classes using reported self-cleavage values and the ranges I (below 0.2), II (0.2 to below 0.8), III (0.8 or more), please.

Request: # classify by self-cleavage band: C22A U46A
Response: I

Request: # classify by self-cleavage band: U53G A59G
Response: III

Request: # classify by self-cleavage band: G5A G25A
Response: I

Request: # classify by self-cleavage band: C45U U67C
Response: III

Request: # classify by self-cleavage band: C39U C57U
Response: II

Request: # classify by self-cleavage band: C35A C39U
Response: I

Request: # classify by self-cleavage band: G1A C24A
Response: I

Request: # classify by self-cleavage band: A13U A60G
Response: II

Request: # classify by self-cleavage band: G11U G19U
Response: I

Request: # classify by self-cleavage band: U20G U69C
Response: II

Request: # classify by self-cleavage band: A8C U46C
Response: III

Request: # classify by self-cleavage band: C34U A40C
Response: II

Request: # classify by self-cleavage band: G1C U61G
Response: II

Request: # classify by self-cleavage band: A51G U67G
Response: III

Request: # classify by self-cleavage band: G14U A16U
Response: II

Request: # classify by self-cleavage band: G48A U62G
Response: III

Request: # classify by self-cleavage band: A59G U62G
Response: III

Request: # classify by self-cleavage band: G2C A42G
Response: I

Request: # classify by self-cleavage band: G2U A42G
Response: I

Request: # classify by self-cleavage band: C24U A60C
Response: II

Request: # classify by self-cleavage band: G14A C27U
Response: I

Request: # classify by self-cleavage band: C32G C63A
Response: II

Request: # classify by self-cleavage band: C22G G25C
Response: II

Request: # classify by self-cleavage band: G19C U26G
Response: I

Request: # classify by self-cleavage band: G48A U67C
Response: III

Request: # classify by self-cleavage band: U53C G68A
Response: III

Request: # classify by self-cleavage band: G17A U49G
Response: II

Request: # classify by self-cleavage band: G17C G25U
Response: I

Request: # classify by self-cleavage band: A15U C22U
Response: I

Request: # classify by self-cleavage band: G17U U55A
Response: I

Request: # classify by self-cleavage band: C32U U53A
Response: III

Request: # classify by self-cleavage band: G31A U53A
Response: II

Request: # classify by self-cleavage band: A16C G28A
Response: I

Request: # classify by self-cleavage band: A16U U64C
Response: II

Request: # classify by self-cleavage band: A8G G17C
Response: I

Request: # classify by self-cleavage band: G37C C63A
Response: II

Request: # classify by self-cleavage band: U36C G58U
Response: III

Request: # classify by self-cleavage band: C35A G37U
Response: II

Request: # classify by self-cleavage band: G48U G68U
Response: III

Request: # classify by self-cleavage band: U43A U64C
Response: II

Request: # classify by self-cleavage band: U26A G50A
Response: III

Request: # classify by self-cleavage band: U44G A52U
Response: III

Request: # classify by self-cleavage band: A23U G50C
Response: III
